tested on: CU-ACC2; test: area under concentration-response curve (viability) (AUC (a.u.)); higher = less active; settings: 48 h
# area under concentration-response curve >= 500 gives t, anything below gives f

// below: answered molecules
INSERT INTO measurements (molecule, group_label) VALUES
  ('Oc1cc2c(cc1O)C1c3ccc(O)c(O)c3OCC1(O)C2 (stereo not drawn)', 't'),
  ('CO[C@H]1/C=C/O[C@@]2(C)Oc3c(C)c(O)c4c(O)c(c(/C=N/N5CCN(C)CC5)c(O)c4c3C2=O)NC(=O)/C(C)=C\C=C\[C@H](C)[C@H](O)[C@@H](C)[C@@H](O)[C@@H](C)[C@H](OC(C)=O)[C@@H]1C', 't'),
  ('CN(C)/N=N/c1nc[nH]c1C(N)=O', 't'),
  ('ClC1=CC=C2N/C3=N/C(=O)CN3CC2=C1Cl', 't'),
  ('CCCCCN(C)CCC(O)(P(=O)([O-])O)P(=O)(O)O', 't');

Ask | Reported area under concentration-response curve at or above 500? CCCc1cc(C(=O)N[C@H](Cc2ccc(-c3cccc(OC(F)(F)F)c3)nc2)C(=O)N[C@@H]2CCNC2)sc1C
Reply | f

Ask | Reported area under concentration-response curve at or above 500? O=C(NOCC(O)CO)c1cc(Br)c(F)c(F)c1Nc1ccc(I)cc1F (stereo not drawn)
Reply | f

Ask | Reported area under concentration-response curve at or above 500? COC(=O)[C@@]12OC[C@]34[C@H]([C@@H](O)[C@@H]1O)[C@@]1(C)CC(=O)C(O)=C(C)[C@@H]1C[C@H]3OC(=O)[C@H](OC(=O)/C=C(\C)C(C)C)[C@@H]24
Reply | f

Ask | Reported area under concentration-response curve at or above 500? N#C/N=C(\NCCCCCCOc1ccc(Cl)cc1)Nc1ccncc1
Reply | f

Ask | Reported area under concentration-response curve at or above 500? CC(C)(N[S+](=O)([O-])c1ccc2c(Cl)cnc(NC(=N)N)c2c1)C(=O)O
Reply | t

Ask | Reported area under concentration-response curve at or above 500? N[S+](=O)([O-])c1cc2c(cc1Cl)NC(C(Cl)Cl)N[S+]2(=O)[O-] (stereo not drawn)
Reply | t

====

test system: NCI-H295R; experiment: area under concentration-response curve (viability) (AUC (a.u.)); higher = less active; conditions: 48 h
Property: area under concentration-response curve; scope: individual molecules

Reference set, count: 5
INSERT INTO results (molecule, value_observed) VALUES
  ('Cc1ccc([S+](=O)([O-])Nc2cc(C(F)(F)F)ccc2C(=O)Nc2nc(-c3ccccc3)cs2)cc1', 479),
  ('CC(C)C(N)C(=O)OCC(CO)OC[N]1C=NC2=C1N\C(=N/C2=O)N (stereo unspecified)', 436),
  ('CCc1cnn2c(NCc3ccc[n+]([O-])c3)cc(N3CCCC[C@H]3CCO)nc12', 158),
  ('COc1cc(OC)cc(N2CCN(C(=O)Nc3nc4cc(F)ccc4nc3OC)CC2)c1', 454),
  ('CN1C2CCC1CC(OC(=O)C(CO)c1ccccc1)C2 (stereo unspecified)', 396);

Ask | Please look up its area under concentration-response curve: CCCCCN(C)CCC(O)(P(=O)([O-])O)P(=O)(O)O
Reply | 611

Ask | Please look up its area under concentration-response curve: CN(C)Cc1c(C(=O)NCCOc2ccc(C(=O)NO)cc2)oc2ccccc12
Reply | 412

Ask | Please look up its area under concentration-response curve: CC(C)(NC(=O)O[C@@H]1CN2CCC1CC2)c1csc(-c2ccc(F)cc2)n1
Reply | 480

Ask | Please look up its area under concentration-response curve: C=C(C)[C@@H]1CC[C@]2(C)CC[C@]3(C)[C@H](CC[C@@H]4[C@@]5(C)CC[C@H](O)C(C)(C)[C@@H]5CC[C@]43C)[C@@H]12
Reply | 551

====

tested on: NCI-H295R; test: area under concentration-response curve (viability) (AUC (a.u.)); higher = less active; conditions: 48 h
experimental endpoint: area under concentration-response curve
// print number alone

INSERT INTO measurements (compound, experimental_endpoint, value_observed) VALUES
  ('C[Se]CCC(N)C(=O)O (stereo not given)', 'area under concentration-response curve', 479),
  ('COc1cc2ncnc(Nc3ccc(F)c(Cl)c3)c2cc1OCCCN1CCOCC1', 'area under concentration-response curve', 594),
  ('CCc1nc(C(N)=O)c(Nc2ccc(N3CCC(N4CCN(C)CC4)CC3)c(OC)c2)nc1NC1CCOCC1', 'area under concentration-response curve', 500),
  ('CCc1cccc(CC)c1NC(=O)N1Cc2[nH]nc(NC(=O)c3ccc(N4CCN(C)CC4)cc3)c2C1', 'area under concentration-response curve', 597);

As a next step, examine the compound that follows.
Ask | Please look up its area under concentration-response curve: OC1=CC=C(C=C1)\C2=C\OC3=C(C(=CC(=C3)O)O)C2=O
Reply | 555

====

tested on: CU-ACC1; experiment: area under concentration-response curve (viability) (AUC (a.u.)); higher = less active; conditions: 48 h
Property: area under concentration-response curve; scope: individual compounds
// print number alone

Reference set, count: 3
INSERT INTO measurements (compound, value_observed) VALUES
  ('O=C(NCc1ccc([S+](=O)([O-])c2cccc(C(F)(F)F)c2)cc1)c1cnc2[nH]ncc2c1', 347),
  ('N[S+](=O)([O-])OC[C@@H]1C[C@@H](n2ccc3c(N[C@H]4CCc5ccccc54)ncnc32)C[C@@H]1O', 467),
  ('CC1=C2N=C([NH]C2=CC(=C1)N3CCOCC3)\C4=C(NC[C@@H](O)C5=CC=CC(=C5)Cl)\C=C/NC4=O', 342);

As a next step, examine the compound that follows.
Ask | Please look up its area under concentration-response curve: CCc1ccc(CCOc2ccc(CC3SC(=O)NC3=O)cc2)nc1 (centres undefined)
Reply | 112

====

test system: NCI-H295R; assay: area under concentration-response curve (viability) (AUC (a.u.)); higher = less active; conditions: 48 h
experimental endpoint: area under concentration-response curve
// print number alone

Reference set, count: 8
INSERT INTO results (compound, value_observed) VALUES
  ('CCN1CCN(Cc2ccc(Nc3ncc(F)c(-c4cc(F)c5nc(C)n(C(C)C)c5c4)n3)nc2)CC1', 480),
  ('Cc1cc(C(=O)Nc2cc(Nc3ccc4c(/C=C/c5ccccn5)[nH]nc4c3)ccc2F)n(C)n1', 525),
  ('O=C1O[C@]2(CC[C@@H](C(=O)Nc3ccn(-c4ccccc4F)n3)CC2)c2cnccc21', 494),
  ('O=C(O)CC(C(=O)O)N1C(=O)/C(=C2/C(=O)Nc3ccc(Br)cc32)SC1=S (centres undefined)', 567),
  ('CC(C)NC(=O)COc1cccc(-c2nc(Nc3ccc4[nH]ncc4c3)c3ccccc3n2)c1', 523),
  ('Fc1ccc(-c2csc3ncnc(NCc4ccc5c(c4)OCO5)c23)cc1', 427),
  ('C/C(=N\Nc1nnc2c(n1)[nH]c1c(C)cccc12)c1ccccn1', 415),
  ('NC(=O)c1cccc(-c2cccc(OC(=O)NC3CCCCC3)c2)c1', 470);

As a next step, examine the compound that follows.
Ask | Please look up its area under concentration-response curve: [NH2][Pt]([NH2])([Cl])[Cl]
Reply | 514

====

system: CU-ACC2; assay: area under concentration-response curve (viability) (AUC (a.u.)); higher = less active; settings: 48 h
experimental endpoint: area under concentration-response curve
// print number alone

Reference set, count: 6
INSERT INTO measurements (compound, value_observed) VALUES
  ('CC(C)(Sc1cc(C(C)(C)C)c(O)c(C(C)(C)C)c1)Sc1cc(C(C)(C)C)c(O)c(C(C)(C)C)c1', 652),
  ('CCCCCCCCc1ccc(CCC(N)(CO)CO)cc1', 384),
  ('O=C(Nc1ccc([N+](=O)[O-])cc1Cl)c1cc(Cl)ccc1O', 471),
  ('COC1=CC=C(Cl)C=C1\C2=C\C(=O)NC(=S)N2CC(N)=O', 580),
  ('CC[C@@]1(O)C(=O)OCc2c1cc1n(c2=O)Cc2cc3c(CN(C)C)c(O)ccc3nc2-1.Cl', 483),
  ('FC(F)(F)c1ccc(/C=C/c2nc(COc3ccc(CCCCn4ccnn4)cc3)co2)cc1', 596);

Ask | Please look up its area under concentration-response curve: C[C@H](Nc1nc(N[C@H](C)C(F)(F)F)nc(-c2cccc(Cl)n2)n1)C(F)(F)F
Reply | 606

Ask | Please look up its area under concentration-response curve: Cc1ccc(NC(=O)Nc2cc(C(F)(F)F)ccc2F)cc1Nc1ccc2c(c1)NC(=O)/C2=C\c1ccc[nH]1
Reply | 506

Ask | Please look up its area under concentration-response curve: O=C(Nc1ccc2c(c1)CCN(Cc1ncn[nH]1)C2)c1ccccc1-c1ccc(C(F)(F)F)cc1
Reply | 505

Ask | Please look up its area under concentration-response curve: NC\1=N\C(=O)N(\C=N1)[C@H]2C[C@H](O)[C@@H](CO)O2
Reply | 588

Ask | Please look up its area under concentration-response curve: CC1(C)CNc2cc(NC(=O)c3cccnc3NCc3ccncc3)ccc21
Reply | 317

Ask | Please look up its area under concentration-response curve: Cc1cc(CN2CCN(c3c(Br)cnc4[nH]c(-c5ccc(N6CCN(C)CC6)cc5)nc34)CC2)no1
Reply | 478

Ask | Please look up its area under concentration-response curve: O=C(c1cncc(Br)c1)N1CCC(N2CCCC2)CC1
Reply | 440

Ask | Please look up its area under concentration-response curve: C[S+](=O)([O-])Nc1ccc([N+](=O)[O-])cc1Oc1ccccc1
Reply | 639

Ask | Please look up its area under concentration-response curve: CCCCOc1ccc(CC(=O)NO)cc1
Reply | 631

Ask | Please look up its area under concentration-response curve: CC(C)C[C@H](NC(=O)CNC(=O)c1cc(Cl)ccc1Cl)B1OC(=O)CC(CC(=O)O)(C(=O)O)O1 (stereo partly drawn)
Reply | 380

Ask | Please look up its area under concentration-response curve: C=C[C@H]1CN2CCC1C[C@@H]2C(O)c1ccnc2ccc(OC)cc12 (stereo partly drawn)
Reply | 595

Ask | Please look up its area under concentration-response curve: C[C@H](CCC(=O)O)[C@H]1CC[C@H]2[C@@H]3[C@@H](O)C[C@@H]4C[C@H](O)CC[C@]4(C)[C@H]3CC[C@]12C
Reply | 496
